For each of the compounds below, state its composite z-score.
# measurement-protocol: binders of probe aFST on microarray, primary screen, stem cell growth factor project, biochemical, small-molecule microarray, fluorescence 635/667 (AID 1086);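 further: score merges 667 nm fluorescence with signal-to-noise of each printed compound spot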
# condition-notes: higher = more signal
Number only, please.

## Task composite z-score for O=C1C[C@@H](O)[C@@H](O)[C@@H]2[C@@H]3C(=O)N(c4cccc(Oc5ccccc5)c4)C(=O)[C@@H]3CC[C@@H]12 ?
## Result 0.0399

## Task composite z-score for CCN1C(=O)[C@H]2[C@H]3[C@H](O)[C@H](O)CC(=NO[C@@H]4O[C@H](CO)[C@@H](O)[C@H](O)[C@H]4O)[C@@H]3CC[C@H]2C1=O ?
## Result -0.402

## Task composite z-score for CC(CCN1CCc2nc(-c3ccccc3)c(-c3ccccc3)cc2C1)=NO[C@@H](C)c1cn([C@H](CO)Cc2ccccc2)nn1 ?
## Result 0.0854

## Task composite z-score for COCCCNC(=O)[C@@]1(CCS(=O)(=O)c2ccccc2)N=C(c2ccc(OCCCO)cc2)O[C@H]1c1ccccc1 ?
## Result 0.56

## Task composite z-score for CC(=O)OC[C@H]1O[C@@H](ON=C[C@@H](C)[C@H](OCc2ccccc2)C(C)C)[C@H](OC(C)=O)[C@@H](OC(C)=O)[C@@H]1OC(C)=O ?
## Result 0.304

## Task composite z-score for COCCCNC(=O)[C@]1(CCC(=O)OC(C)(C)C)N=C(c2ccc(OCCCO)cc2)O[C@@H]1c1ccccc1N=[N+]=[N-] ?
## Result 1.51

## Task composite z-score for CC(C)=NOCc1ccc(-c2cc(-c3ccccc3)no2)cc1 ?
## Result 0.0003

---

# study-system: Epidermal growth factor receptor (Homo sapiens)
# measurement-protocol: EGFR binders on small-molecule microarrays, primary screen, biochemical, small-molecule microarray, 635 nm fluorescence (AID 1104);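 further: score merges 667 nm emission intensity with spot signal to noise over triplicate slides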
# condition-notes: EGFR binding, higher = more signal
Please mark fulfilled if the recorded composite z-score is equal to or greater than 0.2, and not fulfilled if it falls below.

## Task Kindly determine if composite z-score recorded for O=C1[C@H]2[C@H]3[C@H](O)[C@H](O)CC(=NO[C@@H]4O[C@H](CO)[C@@H](O)[C@H](O)[C@H]4O)[C@@H]3CC[C@H]2C(=O)N1Cc1ccccc1 is above or exactly 0.2.
## Result fulfilled

## Task Kindly determine if composite z-score recorded for O=C1O[C@@H](c2ccccc2)[C@@H](c2ccccc2)N2[C@@H](c3ccc(O)cc3)[C@]3(C(=O)Nc4ccccc43)[C@@H](C(=O)O)[C@H]12 is above or exactly 0.2.
## Result not fulfilled

## Task Kindly determine if composite z-score recorded for CCCNC(=O)[C@@H]1c2ccccc2C(=O)N(Cc2ccccc2Cl)[C@H]1c1ccc(CO)cc1 is above or exactly 0.2.
## Result not fulfilled

## Task Kindly determine if composite z-score recorded for CCOC(=O)[C@H](CC(C)C)NC(=O)CCC1CC(OC(=O)NCCc2ccc(F)cc2)CC2(CCCC(COC(=O)NCc3ccccc3)O2)O1 (some centres undefined) is above or exactly 0.2.
## Result fulfilled

## Task Kindly determine if composite z-score recorded for CN1C(=O)C2C(C1=O)C1C=C(CCCO)C2C(c2ccc(CN3CCCC3)cc2)N1C (centres undefined) is above or exactly 0.2.
## Result not fulfilled

## Task Kindly determine if composite z-score recorded for CCN1C(=O)[C@H]2[C@H]3[C@H](O)[C@H](O)CC(=NOCC=C(C)CCC=C(C)C)[C@H]3CC[C@H]2C1=O is above or exactly 0.2.
## Result fulfilled

## Task Kindly determine if composite z-score recorded for CC(C)=C1C(=O)C(c2ccccc2)=C2CN3C(=O)N(CCc4ccccc4)C(=O)[C@]3(Cc3ccc(F)cc3)[C@H]21 is above or exactly 0.2.
## Result not fulfilled

## Task Kindly determine if composite z-score recorded for CC(C)(C)OC(=O)CC[C@]1(C(=O)NCc2ccccc2)N=C(c2ccc(OCCCO)cc2)O[C@H]1c1ccccc1 is above or exactly 0.2.
## Result not fulfilled

## Task Kindly determine if composite z-score recorded for CC(CCC(=O)OC[C@H]1O[C@H](C#Cc2ccccc2)C=C[C@@H]1Oc1ccc(C)cc1)=NOC[C@@H](O)[C@H]1O[C@@H]2OC(C)(C)O[C@@H]2[C@H]1O is above or exactly 0.2.
## Result not fulfilled

---

# study-system: Left-right determination factor 2 (Homo sapiens)
# measurement-protocol: LEFTY2 binders on small-molecule microarrays, primary screen, biochemical, small-molecule microarray, 635 nm fluorescence scan (AID 1110)
# condition-notes: LEFTY2 binding, higher = more signal
endpoint-label: composite z-score
Number only, please.

## Task composite z-score for CCOC(=O)[C@H](Cc1ccccc1)NC(=O)CCC1CC(OC(=O)NCc2ccc3c(c2)OCO3)CC2(CCCC(COC(=O)NCc3ccccc3)O2)O1 (some centres not stated) ?
## Result 0.619

## Task composite z-score for C[C@@H]1CC[C@H]2C(=O)O[C@H](COc3ccc(C(C)(C)C)cc3)CN2[C@H]1c1ccc(Br)cc1 ?
## Result 0.113

## Task composite z-score for COC(=O)C1=C(C)[C@@H](O)[C@@H](C)[C@H](c2c(OC)c(OC)c(C)c(OC)c2OC)O1 ?
## Result 0.494

## Task composite z-score for O=C(NN=C1C[C@@H](O)[C@@H](O)[C@@H]2[C@@H]3C(=O)N(c4ccc(F)cc4F)C(=O)[C@@H]3CC[C@@H]12)OCc1ccccc1 ?
## Result 0.312

## Task composite z-score for CC(C)N1CC=CC23O[C@@H]4C=CCCOC(=O)C4[C@H]2C(=O)N(CCCCCCO)[C@@H]3C1=O (some centres not stated) ?
## Result -1.39

## Task composite z-score for CC(C)[C@@H](OCc1ccccc1)[C@H](C)C=NO[C@H](C)c1cn([C@H](CO)Cc2ccccc2)nn1 ?
## Result 0.521

## Task composite z-score for O=C(CS)NCCCCCNC(=O)[C@@H]1C[C@@H]2C(=O)N[C@@H](Cc3ccccc3)C(=O)N2[C@@H]1c1ccc(O)cc1 ?
## Result 0.514

---

# study-system: Focal adhesion kinase 1 (Homo sapiens)
# measurement-protocol: small-molecule microarray binders of FAK, primary screen, biochemical, 635/667 nm fluorescence, BSA, DTT (AID 1130);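 further: composite of spot emission at 667 nm and signal to noise over triplicate slides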
# condition-notes: PTK2 binding, 635 nm fluorescence, higher = more signal
endpoint-label: composite z-score
Number only, please.

## Task composite z-score for O=C(CS)NCCCCCNC(=O)[C@H]1C[C@H]2C(=O)N3CCC[C@H]3C(=O)N2[C@H]1c1cccc(OCCO)c1 ?
## Result 2.11

## Task composite z-score for CO[C@H]1COC(=O)[C@H](C)COC(=O)CC=C[C@@H](C)[C@H](OC)COC(=O)CC=C[C@@H]1C ?
## Result -0.117

## Task composite z-score for CCOC(=O)C[C@H]1[C@H](OC(=O)c2cc3ccccc3oc2=O)[C@@H](NC(=O)c2ccc3ccccc3n2)c2cc(OCCCO)ccc2N1C(=O)c1ccccc1 ?
## Result 0.513

## Task composite z-score for CS(=O)(=O)CCOC(=O)C1=CC(CCCO)=CC(c2cccs2)N(Cc2cccc(OC(F)(F)F)c2)C=C1C(=O)OCCS(C)(=O)=O (configuration not stated) ?
## Result 0.905

## Task composite z-score for COc1ccc(O[C@H]2C=C[C@@H](c3ccccc3)O[C@@H]2CON=C[C@@H](C)[C@H](OCc2ccccc2)C(C)C)cc1 ?
## Result -0.302

## Task composite z-score for C=C(/C(=C/C[C@@H](OC(=O)c1ccncc1)c1ccc(OCCO)cc1)c1cnc2ccccc2c1)C(C)C ?
## Result -0.616

## Task composite z-score for O=C1C[C@@H](O)[C@@H](O)[C@@H]2[C@@H]3C(=O)N(c4cccc(Oc5ccccc5)c4)C(=O)[C@@H]3CC[C@@H]12 ?
## Result 0.35

---

# measurement-protocol: small-molecule microarray binders of probe aCHRDL2, primary screen, biochemical, biotinylated probe, 635/667 nm fluorescence (AID 1100)
# condition-notes: higher = more signal
For each of the molecules below, state its composite z-score.
Number only, please.

## Task composite z-score for CC(C)CON=C1C[C@@H](O)[C@@H](O)[C@@H]2[C@@H]3C(=O)N(Cc4ccccc4)C(=O)[C@@H]3CC[C@@H]12 ?
## Result -0.737

## Task composite z-score for COc1ccc(-c2nc3c(c4c2C[C@H](C)OC4)CN(CCC(C)C)CC3)cc1 ?
## Result -0.514

## Task composite z-score for O[C@@H](Cc1ccccc1)[C@H]1C2C=CCCC(c3ccccc3)=C2CN1Cc1cccc(Cl)c1 (stereo partly drawn) ?
## Result 0.7

## Task composite z-score for O=C1CCCC2OC12C(O)CCc1ccccc1 (stereo not drawn) ?
## Result -0.503

## Task composite z-score for C=C(/C(=C/C[C@@H](OC(=O)c1ccncc1)c1ccc(OCCO)cc1)c1cnc2ccccc2c1)C(C)C ?
## Result -0.216

## Task composite z-score for CO[C@H]1O[C@H](CO)[C@@H](OC(=O)Nc2ccc(C#N)cc2)[C@H](OC(=O)c2cc3ccccc3[nH]2)[C@H]1OC(=O)c1cc2ccccc2[nH]1 ?
## Result 0.19

## Task composite z-score for CC(CCN1CCCCc2nc(C)c(C)cc21)=NOC(C)CN1CCCc2nc(C)c(C)cc21 (stereo not drawn) ?
## Result -0.324

## Task composite z-score for COc1ccc(COC(=O)NN=C2C[C@@H](O)[C@@H](O)[C@@H]3[C@@H]4C(=O)N(c5ccc(F)cc5F)C(=O)[C@@H]4CC[C@@H]23)cc1 ?
## Result 1.18
